# measured target: Nrg2 (UniProt P38082)
# Sequence: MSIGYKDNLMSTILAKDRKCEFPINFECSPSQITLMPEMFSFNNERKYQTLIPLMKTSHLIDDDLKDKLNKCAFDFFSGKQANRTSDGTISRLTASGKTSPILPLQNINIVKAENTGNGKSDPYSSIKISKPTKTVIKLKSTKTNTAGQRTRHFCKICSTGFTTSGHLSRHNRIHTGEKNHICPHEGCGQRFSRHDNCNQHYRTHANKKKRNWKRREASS
# assay protocol: PBM E-score (8-mer binding enrichment) (E-score (-0.5 to 0.5)); higher = stronger / more preferred TF binding
# assay context: protein concentration: 100 nM; construct: GST-full length
Whole data set: some 33,000 sequences, median “E-score (-0.5 to 0.5)” near -8e-05, cut for the highest 2% near 0.23. This excerpt belongs to a sample that is enriched for the highest values.
Rule: PBM E-score under 0.06 gives class 0, otherwise class 1.

> print(dat)
    primary.sequence  classification
 1          AACAATCC         class 1
 2          CTGGTGCC         class 0
 3          CACAATAC         class 1
 4          GACAATAC         class 1
 5          AACAATCT         class 1
 6          CGTAATAG         class 0
 7          AATAATAG         class 1
 8          AAGATTCA         class 1
 9          AATAATAT         class 1
10          CAAAGCAG         class 0
11          CCTCTTTC         class 0

* * *

We begin with a simple list: items and their reported PBM E-score.
# measured target: Nrg2 (UniProt P38082)
# Sequence: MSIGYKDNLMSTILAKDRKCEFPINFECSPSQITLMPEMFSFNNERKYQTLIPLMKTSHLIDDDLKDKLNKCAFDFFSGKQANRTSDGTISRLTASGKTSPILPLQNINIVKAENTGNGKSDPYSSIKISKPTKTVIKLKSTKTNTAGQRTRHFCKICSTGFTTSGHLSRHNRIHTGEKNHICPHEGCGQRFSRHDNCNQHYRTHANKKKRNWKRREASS
# assay protocol: PBM E-score (8-mer binding enrichment) (E-score (-0.5 to 0.5)); higher = stronger / more preferred TF binding
# assay context: protein concentration: 100 nM; construct: GST-full length
In all, about 33,000 sequences were measured (“E-score (-0.5 to 0.5)”: median about -8e-05, highest 2% from about 0.23 on). The sample as a whole holds a higher share of the highest values than the screen did.
observable: PBM E-score

> print(dat)
    primary.sequence  numeric.readout
 1          ACCTATAT            0.236
 2          ACTCATAT           -0.028
 3          CCGACAGA            0.141
 4          CGGGACCC          -0.0126
 5          AACTTTGG          -0.0393
 6          CGACGGTA           0.0706
 7          AACGGTCT           -0.127
 8          TCCAGGGA            0.242
 9          CTCAGGGC            0.157
10          GTCAGGGA             0.18
11          AACCTCGA           0.0566
12          GCATAATA            0.201
13          ATTAATTG            0.142
14          ACAGGGGC           0.0717
15          GGGGACCC            0.143
16          ATTATGCC            0.115
17          AGGGACAA            0.228
18          ACATAATA            0.295
19          CAGAAAGG           0.0423
20          GAGTCAGC           -0.151
21          ACCTATAC           -0.044
22          ATTCTTTA          -0.0742
23          GGTAACGA         -0.00769
24          CGAACGCA            0.282
25          AAGAGGTA           0.0504
26          CGGGACCG          -0.0394
27          GCGACAGA            0.238
28          AAATAGAC            0.165
29          ACCTTAGC            0.025
30          CGAGGGTA           0.0487
31          ACCTATAA           -0.112
32          GAATAATC            0.185
33          ACAAGAGA             0.24
34          ATTAATTA            0.117
35          GACAGACA            0.248
36          CACAGACA            0.118
37          GCGCACAA            0.195
38          ACAAGAAT           0.0779
39          CAATAACA           0.0577
40          ATTAATTC            0.229
41          AAATAGAT             0.27
42          CCAGGGTA            0.304
43          CAGTTTTC             0.17
44          ACCAGAAC            0.238
45          ATTATTCC           0.0891
46          CGCTTTTA          -0.0218
47          AACTTTGT            0.251
48          ATTATGCA         -0.00258
49          AAGCCACA           -0.101
50          AGAGGGTC          -0.0416
51          CCAGGGGC           0.0624
52          AGAGCCCC           -0.139
53          CAAAATCG            0.109
54          GTTATTAA            0.182
55          AGGGACTA            0.242
56          GCAGGGTA            0.164
57          CTCTGACC           -0.127
58          CACCTCGA            0.256
59          CTTAATGA           0.0652
60          ATAATCAT            0.235
61          ATCTGCTC          -0.0264
62          ACACTCTC            0.104
63          GACAGACC           0.0299
64          ACCGATCG          -0.0446
65          AACCCGTA          -0.0217
66          CTTCTTGA          -0.0331
67          TGAACGCA           0.0815
68          AAATAATC           0.0163
69          ACATAATC            0.193
70          GGGGACTA          -0.0994
71          GAATAACA            0.265
72          CCAAAGCA            0.119
73          CGAGTTAA            0.264
74          CCAAGAGA            -0.14
75          AAATAATA            0.203
76          GTGTAGAA           -0.191
77          ATGAGACA           0.0867
78          GACCAGTA           -0.174
79          CTTATTCA         -0.00255
80          ACAAGAAC            0.262
81          ACAAGGAC          -0.0546
82          CAGATGAA            0.026
83          AGGGACCC            0.337
84          AAATATAC           0.0852
85          AGGGACAT            0.301
86          ATTAATGA            0.235
87          ATTATGCG            0.266
88          GCGGATAC           0.0466
89          AGCCCTAG            -0.16
90          CCAGGGCC            0.106
91          ACAAGAGC           0.0831
